- Tested target: PfCRT^Dd2 (Plasmodium falciparum, UniProt Q9N623, A220S/I356T/K76T/M74I/N326S/N75E/Q271E/R371I)
- Sequence (Q9N623 whole entry A220S/I356T/K76T/M74I/N326S/N75E/Q271E/R371I): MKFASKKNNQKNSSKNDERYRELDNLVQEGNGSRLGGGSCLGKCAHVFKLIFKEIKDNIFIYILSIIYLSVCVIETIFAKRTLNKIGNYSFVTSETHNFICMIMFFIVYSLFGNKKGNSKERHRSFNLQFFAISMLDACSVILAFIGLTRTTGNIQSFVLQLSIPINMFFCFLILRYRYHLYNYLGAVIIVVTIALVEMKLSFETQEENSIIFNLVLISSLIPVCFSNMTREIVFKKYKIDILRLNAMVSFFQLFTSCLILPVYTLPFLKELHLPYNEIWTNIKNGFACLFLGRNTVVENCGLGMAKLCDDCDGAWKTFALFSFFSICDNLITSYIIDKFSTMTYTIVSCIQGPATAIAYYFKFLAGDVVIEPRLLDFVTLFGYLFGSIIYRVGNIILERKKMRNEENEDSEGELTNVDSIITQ
- Protocol summary: [3H]CQ uptake into Xenopus oocytes, cis-inhibition by unlabelled solute
- Format: cell-based
- Experimental setup: [test solute] = 2 mM; PfCRTDd2 oocytes; background [3H]CQ accumulation subtracted; normalised to oocyte type control
Values of PfCRT-mediated [3H]CQ transport, cis-inhibition (% PfCRTDd2 control) greater than or equal to 20 % PfCRTDd2 control map to class 1; values below map to class 0.

Worked examples, 6 substances total:
- Substance: "SHCLLVT [ST-7]"
  Assigned label: "class 0"
- Substance: "HAGEYG [HG-6]"
  Assigned label: "class 0"
- Substance: "VVYPWTQR [VR-8]"
  Assigned label: "class 0"
- Substance: "LSDLHAHK [LK-8]"
  Assigned label: "class 1"
- Substance: "AEALERMF [AF-8]"
  Assigned label: "class 0"
- Substance: "DMPNALS [DS-7, host-derived peptide upstream of PL-4]"
  Assigned label: "class 1"

Q. Does VHLTPEEK [VK-8] have a reported PfCRT-mediated [3H]CQ transport, cis-inhibition (% PfCRTDd2 control) of at least 20 % PfCRTDd2 control?
A. class 1

Q. Does KEFTPPVQA [KA-9] have a reported PfCRT-mediated [3H]CQ transport, cis-inhibition (% PfCRTDd2 control) of at least 20 % PfCRTDd2 control?
A. class 0

Q. Does HVDPEN [HN-6] have a reported PfCRT-mediated [3H]CQ transport, cis-inhibition (% PfCRTDd2 control) of at least 20 % PfCRTDd2 control?
A. class 0

Q. Does HVDDMP [HP-6] have a reported PfCRT-mediated [3H]CQ transport, cis-inhibition (% PfCRTDd2 control) of at least 20 % PfCRTDd2 control?
A. class 0

Q. Does YFPHFDLS [YS-8] have a reported PfCRT-mediated [3H]CQ transport, cis-inhibition (% PfCRTDd2 control) of at least 20 % PfCRTDd2 control?
A. class 0

Q. Does VDEVGG [VG-6] have a reported PfCRT-mediated [3H]CQ transport, cis-inhibition (% PfCRTDd2 control) of at least 20 % PfCRTDd2 control?
A. class 1
